- subject of test: PRKD1 (human)
- method notes: radiometric filter-binding kinase assay, Kinase HotSpot
- assay setup: compound 0.5 µM; ATP 10 µM
readout kind: residual activity (%)
The reply should be a number in %, with the unit left off.

Before answering, review these 3 worked examples.
query smiles | scale unit | observed
Nc1n[nH]c2nnc(-c3c(-c4ccccc4)nn4ccccc34)cc12 | % | 68.4
CC(C)(C)c1nc2c3ccc(F)cc3c3c(=O)[nH]ccc3c2[nH]1 | % | 8.19
O=C1Nc2cc(Br)ccc2/C1=C1/Nc2ccccc2/C1=N\O | % | 93.6

Qu. Entry Nc1nc(Nc2ccc(S(N)(=O)=O)cc2)nn1C(=O)c1c(F)cccc1F : reported residual activity = ?
Ans. 66.5

Qu. Entry CCN1/C(=C/C(C)=O)Sc2ccc(OC)cc21 : reported residual activity = ?
Ans. 78.1

Qu. Entry COc1cc2ncnc(Nc3ccc(F)c(Cl)c3)c2cc1OCCCN1CCOCC1 : reported residual activity = ?
Ans. 85.4
